Test system: corn (Ze)
assay method text: Test Example 11: crop plant selectivity by upland field foliage treatment (corn), phytotoxicity
condition details: corn; foliage treatment; dose 1.6 g ai/10a; evaluated on 14th day after treatment; index per Table 47
Property: Phytotoxicity Ze; scope: individual compounds
Answer using only a numeral; do not append any unit.

CCc1cc2c(Cl)cc(F)c(-c3ccc(C(F)(F)F)n(C)c3=O)c2o1 [Compound 5-2]	2
CCCc1cc2c(Cl)cc(F)c(-c3ccc(C(F)(F)F)n(C)c3=O)c2o1 [Compound 5-3]	2
C#CC(C)Oc1cc(-c2cn(C)c(C(F)(F)F)cc2=O)c(F)cc1Cl (racemic) [Compound 6-10]	1

// sample CCC(Br)c1cc2c(-c3ccc(C(F)(F)F)n(C)c3=O)c(F)cc(Cl)c2o1 (stereo not shown) [Compound 4-38] , its Phytotoxicity Ze was 2

====

Property: Phytotoxicity Gl; scope: individual molecules
Test system: soybean (Gl)
assay method text: Test Example 6: crop plant selectivity by upland field soil treatment (soybean), phytotoxicity
Format: in vivo
Design: scale not given here
condition details: dose 1.6 g ai/10a, 21st day after application
Source text: (Test on Crop Plant Selectivity by Upland Field Soil Treatment) In a plastic pot (surface area: 600 cm^2) filled with sand, soybean (Gl), Diaitaria ciliaris (Di), green foxtail (Se), Johnsongrass (So), pale smartweed (Po), slender amaranth (Am), common lambsquarters (Ch) and China jute (Ab) were sown and covered with soil. […]
Answer using only a numeral; do not append any unit.

Reference set (10 entries):
CCc1cc2c(-c3cn(C)c(C(F)(F)F)cc3=O)c(F)cc(Cl)c2o1 [Compound 9-2]	1
CCOC(=O)c1cc(-c2ccc(C(F)(F)F)n(C)c2=O)c(F)cc1Cl [1-65]	1
CON=Cc1cc(-c2ccc(C(F)(F)F)n(C)c2=O)c(F)cc1Cl [Compound No. 1-72]	1
C#CC(C)Oc1cc(Cl)cc(F)c1-c1ccc(C(F)(F)F)n(C)c1=O (centres unmarked) [1′-5]	1
COCSc1cc(-c2ccc(C(F)(F)F)n(C)c2=O)c(F)cc1Cl [1-91]	0
C#CCOc1cc(-c2ccc(C(F)(F)F)n(C)c2=O)c(Cl)cc1Cl [1-30]	1
Cn1c(C(F)(F)F)ccc(-c2c(F)cc(Cl)c3occc23)c1=O [Compound No. 4-28]	2
C#CC(C)Oc1cc(-c2ccc(C(F)(F)F)n(C)c2=O)c(F)cc1Cl (centres unmarked) [1-17]	0
C#CCOc1cc(-c2ccc(C(F)(F)F)n(C)c2=O)c(F)cc1Cl [1-18]	1
C#CC(C)Oc1cc(-c2cn(C)c(C(F)(F)F)cc2=O)c(F)cc1Cl (racemic) [Compound 6-10]	0

// sample Cc1cc(-c2ccc(C(F)(F)F)n(C)c2=O)c(F)cc1Cl [1-90] , its Phytotoxicity Gl was 2

// sample Cc1cc2c(-c3ccc(C(F)(F)F)n(C)c3=O)c(F)cc(Cl)c2o1 [Compound 4-1] , its Phytotoxicity Gl was 1

// sample COc1cc(-c2ccc(C(F)(F)F)n(C)c2=O)c(F)cc1Cl [1-15] , its Phytotoxicity Gl was 2

// sample C=CCOc1cc(-c2ccc(C(F)(F)F)n(C)c2=O)c(F)cc1Cl [1-16] , its Phytotoxicity Gl was 1

// sample C#CCN1C(=O)COc2cc(Cl)c(-c3ccc(C(F)(F)F)n(C)c3=O)cc21 [Compound 2-25] , its Phytotoxicity Gl was 0

// sample C#CCN1C(=O)COc2cc(F)c(-c3ccc(C(F)(F)F)n(C)c3=O)cc21 [Compound No. 2-1] , its Phytotoxicity Gl was 0

// sample CCc1cc2c(-c3ccc(C(F)(F)F)n(C)c3=O)c(F)cc(Cl)c2o1 [Compound 4-2] , its Phytotoxicity Gl was 1
